# Test system: U2OS
# experimental-protocol: Multiplex assay against U2OS
# Assay type: toxicity, cell-based
# setup-conditions: human, 24 h, 10 µM, compound concentration 10 uM, replicate 1
# label = bin(measured Population Pyknosed Nuclei (%)), where bins are one = under 10%, two = from 10% up to 30%, three = 30% and over

compound	label-class
CCOc1cc2ncc(C#N)c(Nc3ccc(OCc4cccc(F)c4)c(Cl)c3)c2cc1NC(=O)/C=C/CN(C)C	two
CC(C)(C)c1cnc(CSc2cnc(NC(=O)C3CCNCC3)s2)o1	three
Cc1cc2c(cc1N1C(=O)c3cccc4c(CCCO)ccc(c34)C1=O)n(C)c(=O)n2C	two
COc1ccc(NS(=O)(=O)c2sc3ccc(Cl)cc3c2C)cc1N1CCNCC1.Cl	three
COc1cc2c(Nc3ccc(NC(=O)c4ccccc4)cc3)ncnc2cc1OCCCN1CCOCC1	one
CN(C)C/C=C/C(=O)Nc1cc2c(Nc3ccc(F)c(Cl)c3)ncnc2cc1O[C@H]1CCOC1.O=C(O)/C=C\C(=O)O.O=C(O)/C=C\C(=O)O [AFATINIB DIMALEATE]	two
Cc1cn(-c2cc(NC(=O)c3ccc4c(c3)CN(c3cncnc3)C[C@@H]4C)cc(C(F)(F)F)c2)cn1	one
Nc1ccc(C(=O)Nc2cccc(-c3nc(N4CCOCC4)c4oc5ncccc5c4n3)c2)cn1	two
Cl.Cl.NC1(c2ccc(-c3nc4ccn5c(=O)[nH]nc5c4cc3-c3ccccc3)cc2)CCC1	three
CC(=O)c1cc(-c2cc(C(=O)NC3CC3)ccc2C)c2ncccn12	two
CC(C)N1CCC(C)(C)c2cc(C#Cc3ccc(C(=O)O)cc3)ccc21	one
CNC(=O)c1cc(Oc2ccc(NC(=O)Nc3cc(C(C)(C)C)nn3-c3ccc4ncccc4c3)c(F)c2)ccn1	three
O=C(O)c1ccc2cc(-c3ccc(O)c(C45CC6CC(CC(C6)C4)C5)c3)ccc2c1	one
N#Cc1cnc(Nc2cc(NC[C@H]3CNCCO3)c(C(F)(F)F)cn2)cn1	one
Cc1nc(Cc2cccc(C(F)(F)F)c2)sc1-c1ccc(C(N)=O)nc1 [TP-024n]	two
CCOc1cc(N2CCC(O)CC2)ccc1Nc1ncc2c(n1)N(C1CCCC1)CCC(=O)N2C	one
CNc1oc(-c2cccc3ccccc23)nc1C#N	three
CCC(=O)O[C@]1(C(=O)SCF)[C@H](C)C[C@H]2[C@@H]3C[C@H](F)C4=CC(=O)C=C[C@]4(C)[C@@]3(F)[C@@H](O)C[C@@]21C [FLUTICASONE PROPIONATE]	two
CN(C)CCOc1ccc(-c2nc(-c3ccncc3)c(-c3ccc4c(c3)CC/C4=N\O)[nH]2)cc1	one
c1ccc2oc(-c3csc(C4CCN(Cc5nc6ncccc6[nH]5)CC4)n3)cc2c1	one
CCc1cc2c(cc1CC)CC(NC[C@H](O)c1ccc(O)c3[nH]c(=O)ccc13)C2	three
Cl.Cl.Nc1ncnc2c1c(-c1cccc(OCc3ccccc3)c1)cn2[C@H]1C[C@@H](CN2CCC2)C1	three
Nc1nc2c(c(N3CCNCC3)n1)CCC1=C2[C@@H]2CCCC[C@@H]2O1	three
Cc1c(Oc2ccc(F)cc2)c(OC(C)C)nn1-c1ccc(C2CC2)cn1	one
CCCn1c(=O)c2[nH]c(C34CC5CC(CC3C5)C4)nc2n(CCC)c1=O	two
COc1cc2c(NC3CCN(C(C)C)CC3)nc(N3CCC(F)(F)CC3)nc2cc1OCCCN1CCCC1	two
